src = patent USRE46585

The following binders are listed with their measured Ratio/FWT values.
test.system: T1, FcRn-p3 fusion protein (human, UniProt P55899 24-297; P61769 21-119)
T1 construct: baculovirus expressed; coated on ELISA wells; not shown: amino terminal part of bacteriophage p3 protein and CVDE protein
T1 sequence (P55899 24-297, chain 1 of 2): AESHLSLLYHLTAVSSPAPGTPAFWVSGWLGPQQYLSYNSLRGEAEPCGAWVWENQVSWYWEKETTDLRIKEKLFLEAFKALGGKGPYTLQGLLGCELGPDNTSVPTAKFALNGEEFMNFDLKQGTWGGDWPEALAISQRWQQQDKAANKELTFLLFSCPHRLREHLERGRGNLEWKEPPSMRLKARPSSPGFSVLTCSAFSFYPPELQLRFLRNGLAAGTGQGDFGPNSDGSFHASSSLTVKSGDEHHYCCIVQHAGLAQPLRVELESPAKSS
T1 sequence (P61769 21-119, chain 2 of 2): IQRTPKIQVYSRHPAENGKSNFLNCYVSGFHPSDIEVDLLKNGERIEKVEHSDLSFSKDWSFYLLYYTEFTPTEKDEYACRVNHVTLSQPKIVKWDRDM
assay.details: phage ELISA pH6 (est.)
measure.name: Ratio/FWT (fold)

INSERT INTO results (binder, measure_name, data_value) VALUES
  ('C6A_69 (other, EU numbering) CPPCPAPELLGGPSVFLFPPKPKDTLMISRTPEVTCVVVDVSHEDPEVKFNWYVDGVEVHNAKTKPREEQYNSTYRVVSVLAVLHQDWLDGKEYKCKVSNKALPVPIEKTISKAKGQPREPQVYTLPPSRDELTKNQVSLTCLVKGFYPSDIAVEWVSNGQPETNYKTTPPVLDSDGSFFLYSKLTVDKSRWQQGNVFSCSVMHEALHYHYTQKSLSLSPGK', 'Ratio/FWT', 28.4),
  ('C6A_48 (other, EU numbering) CPPCTAPELLGGPSVFLFPPKPKDTLMISRTPEVTCVVEDVSHEDPEVKFNWYVDGVEVHNAKTKPREEQYNSTYRVVSVLTVLHQDWLNGKEYKCKVSNKALPAPIEKTISKAKGQPREPQVYTLPPSRDELTKNQVSLTCLVKGFYPSDIVVEWESNGQPENNYKTTPPVLDSDGSFFLYSKLTVDKSRWQQGNVFSCSVMHEALHSHYTQKSLSLSPGK', 'Ratio/FWT', 14.4),
  ('C4A_24 (other, EU numbering) CPPCPAPELLGGPSVFLFPPKPKDTLMISRTPEVTCVVVDVSHEDPEVKFNWYVDGVEVHNAKTKPREEQYNSTYRVVSVLTVPHQDWLDGKEYKCKVSNKALPVPIEKTISKAKGQPREPQVYTLPPSRDELTKNQVSLTCLVKGFYPSDIAVEWESNGQPENNYKTTPPVLDSDGSFFLYSKLTVDKSRWQQGNVFSCSVMHEALHYHYTQKSLSLSPGK', 'Ratio/FWT', 7.5);
